Entries and their MIC
tested on: Candida albicans; assay: Antifungal activity against Candida albicans CAF-2; format: functional; details: Candida albicans; read-out: MIC
Positions of bridges follow the written chain, without caps; N, C: chain ends. Non-standard residues stand in square brackets, D forms with d. Residues, ends and D or L forms follow the SMILES beside them. *: point of attachment. pTerphenylCO(4''-OnC5H11) = CCCCCOc1ccc(-c2ccc(-c3ccc(C(=O)*)cc3)cc2)cc1; Pro(cis-4-guanidino) = NC(N)=N[C@@H]1CN[C@H](C(=O)O)C1; hTyr(3-COCH2NH2) = NCC(=O)c1cc(CC[C@H](N)C(=O)O)ccc1O; X7 = CCCCCCCCOc1ccc(-c2ccc(-c3ccc(C(=O)*)cc3)cc2)cc1; X3 = CCCCCCCCOc1ccc(N2CCN(c3ccc(C(=O)*)cc3)CC2)cc1; Pro(4S-NH2) = N[C@@H]1CN[C@H](C(=O)O)C1; Hyp = O=C(O)[C@@H]1C[C@@H](O)CN1; Orn = NCCC[C@H](N)C(=O)O

- molecule: "CCCCCOc1ccc(-c2ccc(-c3ccc(C(=O)N[C@H]4CCCNC(=O)[C@@H]5C[C@H](N=C(N)N)CN5C(=O)[C@H]([C@@H](C)O)NC(=O)[C@H](CCc5ccc(O)c(C(=O)CN)c5)NC(=O)[C@@H]5CCCN5C(=O)[C@H]([C@@H](C)O)NC4=O)cc3)cc2)cc1 ({pTerphenylCO(4''-OnC5H11)}-[Orn]TP[hTyr(3-COCH2NH2)]T[Pro(cis-4-guanidino)]; lactam 1-C)"
  subject.of.test: "Candida albicans"
  MIC: "0.1 µg/mL"
- molecule: "CCCCCCCCOc1ccc(-c2ccc(-c3ccc(C(=O)N[C@H]4CCCNC(=O)[C@@H]5C[C@H](N)CN5C(=O)[C@H]([C@@H](C)O)NC(=O)[C@H](CCc5ccc(O)c(C(=O)CN)c5)NC(=O)[C@@H]5CCCN5C(=O)[C@H]([C@@H](C)O)NC4=O)cc3)cc2)cc1 (X7-[Orn]TP[hTyr(3-COCH2NH2)]T[Pro(4S-NH2)]; lactam 1-C)"
  subject.of.test: "Candida albicans"
  MIC: "0.1 µg/mL"
- molecule: "CCCCCCCCOc1ccc(N2CCN(c3ccc(C(=O)N[C@H]4CCCNC(=O)[C@@H]5C[C@H](N=C(N)N)CN5C(=O)[C@H]([C@@H](C)O)NC(=O)[C@H](CCc5ccc(O)c(C(=O)CN)c5)NC(=O)[C@@H]5C[C@@H](O)CN5C(=O)[C@H]([C@@H](C)O)NC4=O)cc3)CC2)cc1 (X3-[Orn]T[Hyp][hTyr(3-COCH2NH2)]T[Pro(cis-4-guanidino)]; lactam 1-C)"
  subject.of.test: "Candida albicans"
  MIC: "0.1 µg/mL"
